- target_entity: Aldehyde dehydrogenase 1A1 (Homo sapiens)
- assay_procedure: qHTS for Inhibitors of the Aldehyde Dehydrogenase Family (ALDH1A1) Confirmatory screens (AID 2061316); further: nearly all actives have a fitted effect of over 65% in size
- measurement_conditions: ALDH inhibition qHTS; series mostly up to 47.3 µM
Records with an inconclusive call do not appear. The source made the active and inactive calls. The call rests on the fitted dose curve; in most records, active means well fitted inhibition curve with a large enough effect; inconclusive means small, poorly fitted or top-dose-only effect; inactive means no such curve, though single readings can be large or run the other way.
A correct response names exactly one class from active, inactive

CCOc1ccc(C(=O)N2CCN(Cc3cc(=O)n4nc(-c5cccc(OC)c5)sc4n3)CC2)cc1	active
COc1ccc(C2=Nn3c(nnc3-c3cc(OC)ccc3OC)SC2)cc1	active
C/C=C/C=C/C(O)=C1/C(=O)[C@]2(C)C3/C(=C(O)/C=C/C=C/C)C(=O)C4(C)C1[C@]1(C)O[C@@]4(O)[C@@]3(C)O[C@@]12O	active

Query block: Hi team, can someone confirm the assay call for `CN(C)[S+](=O)([O-])c1ccc(-c2cncc(NC(=O)c3cccs3)c2)cc1` ?
Result block: inactive

Query block: Hi team, can someone confirm the assay call for `Cc1ccc(S(=O)(=O)Nc2ccc(NS(=O)(=O)c3ccc(C)cc3)c3ncccc23)cc1` ?
Result block: inactive

Query block: Hi team, can someone confirm the assay call for `COc1ccc(-c2nc3ccccc3c(=O)n2Cc2ccccc2)cc1CNc1ccc(NC(C)=O)cc1` ?
Result block: active

Query block: Hi team, can someone confirm the assay call for `COc1cccc(C2=Nn3c(nnc3-c3ccccc3C)SC2)c1` ?
Result block: active

Query block: Hi team, can someone confirm the assay call for O=C1CCCC2=C1C(c1cccnc1Br)N=C(Nc1nc3ccccc3o1)N2 (centres undefined) ?
Result block: active

Query block: Hi team, can someone confirm the assay call for `O=C(NCCCCc1ccccc1)C1CCN(c2nc(-c3ccc(Br)cc3)cs2)CC1` ?
Result block: active
